- target-of-assay: Delta-type opioid receptor (Homo sapiens, UniProt P41143)
- Sequence (P41143 whole entry): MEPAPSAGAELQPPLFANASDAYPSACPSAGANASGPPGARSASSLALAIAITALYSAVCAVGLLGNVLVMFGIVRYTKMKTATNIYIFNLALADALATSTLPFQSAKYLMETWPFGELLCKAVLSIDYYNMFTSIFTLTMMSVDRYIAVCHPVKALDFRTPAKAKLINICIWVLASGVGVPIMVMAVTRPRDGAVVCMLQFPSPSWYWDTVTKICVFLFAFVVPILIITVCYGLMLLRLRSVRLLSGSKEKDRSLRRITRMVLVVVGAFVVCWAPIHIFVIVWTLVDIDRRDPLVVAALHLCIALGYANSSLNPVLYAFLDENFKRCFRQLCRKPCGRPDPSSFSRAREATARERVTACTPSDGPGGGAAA
- test-name: Binding affinity against human opioid receptor delta 1 was determined using [3H]diprenorphine in vitro transfected to COS-1 cells
pKi: −log10 of the molar value.
property-measured: pKi

| compound | property-measured | observed-result |
| --- | --- | --- |
| CC(=O)N[C@@H](CCCN=C(N)N)C(=O)N[C@H](CC1CCCCC1)C(=O)N[C@H]1CC[C@H]2CCC[C@@H](C(=O)N[C@H](CCCNC(N)=O)C(N)=O)N2C1=O | pKi | < 5.30 |
| CC(=O)N[C@@H](CCCN=C(N)N)C(=O)N[C@H](CC1CCCCC1)C(=O)N[C@H]1CC[C@@H]2SC[C@@H](C(=O)N[C@H](CCCN=C(N)N)C(=O)NC(Cc3ccc(Cl)cc3)C(N)=O)N2C1=O (stereo not given in full) | pKi | 6.65 |
| CC(=O)N[C@@H](CCCN=C(N)N)C(=O)N[C@H](CC1CCCCC1)C(=O)N[C@H]1CC[C@H]2CCC[C@@H](C(=O)N[C@H](CCCNC(N)=O)C(=O)N[C@H](Cc3ccc(Cl)cc3)C(N)=O)N2C1=O | pKi | < 5.30 |

// query Answer with reported pKi of `CC(=O)N[C@@H](CCCN=C(N)N)C(=O)N[C@H](CC1CCCCC1)C(=O)N[C@H]1CC[C@H]2CCC[C@@H](C(=O)N[C@H](CCCN=C(N)N)C(=O)N[C@H](Cc3ccc(Cl)cc3)C(N)=O)N2C1=O`
// result < 5.30

// query Give the measured pKi for `CC(=O)N[C@@H](CCCNC(N)=O)C(=O)N[C@H](CC1CCCCC1)C(=O)N[C@H]1CC[C@H]2CCC[C@@H](C(=O)N[C@H](CCCN=C(N)N)C(=O)N[C@H](Cc3ccc(Cl)cc3)C(N)=O)N2C1=O`
// result < 5.30
